# tested.target: human Nav1.8 (Homo sapiens (Human))
# assay.comment: Nav1.8 Qube® Assay (automated 384-well patch-clamp)
# condition.parameters: human Nav1.8 channels stably expressed in HEK 293 cells
recorded.metric: IC50 (nM)

Guide cases for IC50, answers given:
[
  {
    "compound": "O=C1NC[C@@H](C(=O)NC(c2ccc(OC(F)(F)F)c(Cl)c2)c2coc(C(F)(F)F)n2)O1 (single isomer, unassigned) [Example 51B]",
    "tested.target": "human Nav1.8 (Homo sapiens (Human))",
    "recorded.metric": "IC50",
    "measured.result": 3.7
  },
  {
    "compound": "COc1ccc(C(NC(=O)[C@@H]2CNC(=O)O2)c2ccc(Cl)cc2)cn1 (single isomer, unassigned) [Example 22A]",
    "tested.target": "human Nav1.8 (Homo sapiens (Human))",
    "recorded.metric": "IC50",
    "measured.result": 130
  }
]

a: COc1ncccc1C(NC(=O)[C@@H]1CNC(=O)O1)c1ccc(F)c(Cl)c1 (single isomer, unassigned) [Example 58A]
b: O=C1NC[C@@H](C(=O)NC(c2ccc(F)c(Cl)c2)C2CCN(CC(F)(F)F)C2)O1 (single isomer, unassigned) [Example 43A]
c: O=C1NC[C@@H](C(=O)NC(c2cccc(Cl)c2)C2CC2c2ccccc2)O1 (single isomer, unassigned) [Example 26A]
d: N#Cc1ccc(C(NC(=O)[C@@H]2CNC(=O)O2)c2cnc(C(F)(F)F)c(Cl)c2)cc1Cl (single isomer, unassigned) [Example 54A]
Task item: Arrange these compounds by their IC50, starting with the largest number. Form entry: labels listed in requested order.
Reply: b, c, a, d

* * *

# tested.target: UniProt:Q9Y5Y9
# assay.comment: Nav1.8 Qube® Assay (automated 384-well patch-clamp)
# condition.parameters: human Nav1.8 channels stably expressed in HEK 293 cells
pIC50: −log10 of the molar value.
recorded.metric: pIC50

[
  {
    "molecule": "O=C1NC[C@@H](C(=O)NC(c2ccc(F)c(Cl)c2)c2ccn(C(F)F)n2)O1 (single isomer, unassigned) [Example 60A]",
    "pIC50": 6.64
  }
]

I: O=C1NC[C@@H](C(=O)NC(c2ccc(Cl)cc2)c2cccc(F)c2F)O1 (single isomer, unassigned) [Example 29B]
II: CC(C)(C)c1csc(C(NC(=O)[C@@H]2CNC(=O)O2)c2ccc(Cl)cc2)n1 (single isomer, unassigned) [Example 39A]
Task item: Two entries are listed, I and II . Which one carries the higher pIC50? Return value: the label identifying the chosen record.
Reply: II

* * *

# tested.target: human Nav1.8 (Homo sapiens (Human))
# assay.comment: Nav1.8 Qube® Assay (automated 384-well patch-clamp)
# condition.parameters: human Nav1.8 channels stably expressed in HEK 293 cells
# Description: Qube® Assay Experimental Procedure
pIC50: −log10 of the molar value.
recorded.metric: pIC50

[
  {
    "molecule": "O=C1NC[C@@H](C(=O)NC(c2ccc(F)c(Cl)c2)c2cnn(CC(F)(F)F)c2)O1 (single isomer, unassigned) [Example 59B]",
    "tested.target": "human Nav1.8 (Homo sapiens (Human))",
    "recorded.metric": "pIC50",
    "measured.result": 6.16
  },
  {
    "molecule": "O=C1NC[C@@H](C(=O)NC(c2ccc(F)c(Cl)c2)c2ccc(F)c(C(F)(F)F)n2)O1 (stereo partly shown)",
    "tested.target": "human Nav1.8 (Homo sapiens (Human))",
    "recorded.metric": "pIC50",
    "measured.result": 8.68
  },
  {
    "molecule": "CC1NC(=O)OC1C(=O)NC(c1ccc(Cl)cc1)c1ccc(Cl)cc1 (single isomer, unassigned) [Example 6A]",
    "tested.target": "human Nav1.8 (Homo sapiens (Human))",
    "recorded.metric": "pIC50",
    "measured.result": 6.35
  },
  {
    "molecule": "O=C1NC[C@@H](C(=O)NC(c2ccc(Cl)cc2)c2nc(C(F)(F)F)c[nH]2)O1 (stereo partly shown)",
    "tested.target": "human Nav1.8 (Homo sapiens (Human))",
    "recorded.metric": "pIC50",
    "measured.result": 6.40
  }
]

P: O=C1NC[C@@H](C(=O)NC(c2ccc(F)c(Cl)c2F)[C@@H]2CC[C@@H](C(F)(F)F)CO2)O1 (single isomer, unassigned) [Example 9C]
Q: CC1(C(=O)NC(c2ccc(Cl)cc2)c2ccc(Cl)cc2)CNC(=O)O1 (single isomer, unassigned) [Example 7B]
R: N#Cc1ccc(C(NC(=O)[C@@H]2CNC(=O)O2)c2cnc(C(F)(F)F)c(Cl)c2)cc1Cl (single isomer, unassigned) [Example 54B]
Task item: Please rank these molecules by pIC50 in descending order. Quick reminder: the answer is the labels in the order asked.
Reply: R, P, Q

* * *

# tested.target: human Nav1.8 (Homo sapiens (Human))
# assay.comment: Nav1.8 Qube® Assay (automated 384-well patch-clamp)
# condition.parameters: human Nav1.8 channels stably expressed in HEK 293 cells
pIC50: −log10 of the molar value.
recorded.metric: pIC50

Answered cases to consult:
[
  {
    "compound": "CC1NC(=O)OC1C(=O)NC(c1ccc(Cl)cc1)c1ccc(Cl)cc1 (single isomer, unassigned) [Example 6B]",
    "measured.result": 5.82
  },
  {
    "compound": "O=C1NC[C@@H](C(=O)NC(COc2ccc(F)c(Cl)c2)c2ccc(F)c(Cl)c2)O1 (single isomer, unassigned) [Example 8B]",
    "measured.result": 8.34
  },
  {
    "compound": "O=C1NC[C@@H](C(=O)NC(c2ccccc2)c2ccc(Cl)c(Cl)c2)O1 (single isomer, unassigned) [Example 25B]",
    "measured.result": 7.85
  },
  {
    "compound": "CC(C)c1cccc(C(NC(=O)[C@@H]2CNC(=O)O2)c2ccc(Cl)cc2)c1 (single isomer, unassigned) [Example 32A]",
    "measured.result": 8.30
  }
]

A: O=C1NC[C@@H](C(=O)NC(c2ccc(Cl)cc2)c2ccc(C(F)(F)F)cn2)O1 (single isomer, unassigned) [Example 37A]
B: CC(C)c1cccc(C(NC(=O)[C@@H]2CNC(=O)O2)c2ccc(Cl)cc2)c1 (single isomer, unassigned) [Example 32B]
Task item: From the recorded data, which exceeds the other in pIC50: A or B ? Refer to your chosen item by its label in the answer.
Reply: B
(B: 7.92, A: 6.95)

* * *

# tested.target: human Nav1.8 (Homo sapiens (Human), UniProt Q9Y5Y9)
# Sequence (Q9Y5Y9 whole entry): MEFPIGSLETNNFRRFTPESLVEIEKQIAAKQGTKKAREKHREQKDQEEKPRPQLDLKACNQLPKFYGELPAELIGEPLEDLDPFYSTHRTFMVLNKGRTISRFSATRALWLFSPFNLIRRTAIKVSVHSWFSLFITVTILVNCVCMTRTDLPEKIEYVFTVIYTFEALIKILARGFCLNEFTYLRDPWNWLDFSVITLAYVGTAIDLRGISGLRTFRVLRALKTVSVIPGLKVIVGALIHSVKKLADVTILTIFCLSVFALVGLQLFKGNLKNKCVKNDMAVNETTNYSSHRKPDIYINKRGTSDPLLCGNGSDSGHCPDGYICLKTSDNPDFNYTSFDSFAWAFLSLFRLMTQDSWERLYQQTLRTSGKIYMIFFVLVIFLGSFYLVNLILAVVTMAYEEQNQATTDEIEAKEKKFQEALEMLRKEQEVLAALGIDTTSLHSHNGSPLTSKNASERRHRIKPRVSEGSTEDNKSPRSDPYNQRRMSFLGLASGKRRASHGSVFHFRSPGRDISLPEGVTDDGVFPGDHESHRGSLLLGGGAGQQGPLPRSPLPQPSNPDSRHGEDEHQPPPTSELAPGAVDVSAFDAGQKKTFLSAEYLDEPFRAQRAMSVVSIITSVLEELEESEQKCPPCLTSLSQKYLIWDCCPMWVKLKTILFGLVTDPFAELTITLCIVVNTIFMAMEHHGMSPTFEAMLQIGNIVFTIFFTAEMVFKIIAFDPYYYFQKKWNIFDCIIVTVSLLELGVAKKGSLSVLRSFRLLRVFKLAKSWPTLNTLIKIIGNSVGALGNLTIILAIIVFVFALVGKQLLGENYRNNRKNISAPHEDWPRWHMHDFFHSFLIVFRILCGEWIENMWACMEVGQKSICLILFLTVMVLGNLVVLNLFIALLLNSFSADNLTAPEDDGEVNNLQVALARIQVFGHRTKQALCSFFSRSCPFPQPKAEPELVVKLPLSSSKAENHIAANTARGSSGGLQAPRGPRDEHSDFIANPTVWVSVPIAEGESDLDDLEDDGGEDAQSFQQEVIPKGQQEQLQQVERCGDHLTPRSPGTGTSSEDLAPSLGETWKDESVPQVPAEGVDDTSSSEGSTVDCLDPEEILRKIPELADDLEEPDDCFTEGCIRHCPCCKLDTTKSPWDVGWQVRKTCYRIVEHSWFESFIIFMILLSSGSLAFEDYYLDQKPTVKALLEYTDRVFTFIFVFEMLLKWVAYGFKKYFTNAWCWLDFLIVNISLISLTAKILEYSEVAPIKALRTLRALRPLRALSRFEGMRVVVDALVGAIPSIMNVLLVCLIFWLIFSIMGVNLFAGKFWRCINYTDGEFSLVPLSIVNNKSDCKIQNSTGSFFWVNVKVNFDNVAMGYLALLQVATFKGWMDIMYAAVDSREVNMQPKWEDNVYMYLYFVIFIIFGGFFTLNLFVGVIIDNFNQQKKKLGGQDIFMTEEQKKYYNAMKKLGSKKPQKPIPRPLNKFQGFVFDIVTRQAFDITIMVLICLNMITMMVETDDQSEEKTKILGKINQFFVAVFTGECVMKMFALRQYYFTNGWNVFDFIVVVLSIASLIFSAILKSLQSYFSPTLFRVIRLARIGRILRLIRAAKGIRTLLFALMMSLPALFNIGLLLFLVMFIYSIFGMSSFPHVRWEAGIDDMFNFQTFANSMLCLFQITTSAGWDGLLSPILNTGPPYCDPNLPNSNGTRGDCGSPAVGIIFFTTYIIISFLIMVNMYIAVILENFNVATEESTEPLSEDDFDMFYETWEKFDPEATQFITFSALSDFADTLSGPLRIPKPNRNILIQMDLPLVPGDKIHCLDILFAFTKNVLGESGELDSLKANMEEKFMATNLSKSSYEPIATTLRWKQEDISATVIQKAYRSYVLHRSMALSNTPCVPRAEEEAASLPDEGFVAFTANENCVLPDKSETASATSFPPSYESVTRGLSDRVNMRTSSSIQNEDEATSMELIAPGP
# assay.comment: Nav1.8 Qube® Assay (automated 384-well patch-clamp)
# condition.parameters: human Nav1.8 channels stably expressed in HEK 293 cells
recorded.metric: IC50 (nM)

[
  {
    "molecule": "N#Cc1cc(C(NC(=O)[C@@H]2CNC(=O)O2)c2ccc(F)c(Cl)c2)ccc1F (single isomer, unassigned)",
    "recorded.metric": "IC50",
    "measured.result": 16
  },
  {
    "molecule": "O=C1NC[C@@H](C(=O)NC(CC2CCCCC2)c2ccc(F)c(Cl)c2F)O1 (some centres unmarked)",
    "recorded.metric": "IC50",
    "measured.result": 21
  },
  {
    "molecule": "O=C1NC[C@@H](C(=O)NC(c2ccc(Cl)cc2)c2ccc(Cl)c(C(F)(F)F)c2)O1 (single isomer, unassigned) [Example 35A]",
    "recorded.metric": "IC50",
    "measured.result": 0.4
  },
  {
    "molecule": "O=C1NC[C@@H](C(=O)NC(CCc2ccc(Cl)cc2)c2ccc(F)c(Cl)c2F)O1 (single isomer, unassigned) [Example 65B]",
    "recorded.metric": "IC50",
    "measured.result": 11
  },
  {
    "molecule": "O=C1NC[C@@H](C(=O)NC(c2ccc(Cl)cc2)c2coc(C(F)(F)F)n2)O1 (single isomer, unassigned) [Example 18B]",
    "recorded.metric": "IC50",
    "measured.result": 272
  }
]

A: O=C1NC[C@@H](C(=O)NC(c2ccc(F)c(Cl)c2F)[C@@H]2CC[C@@H](C(F)(F)F)CO2)O1 (single isomer, unassigned) [Example 9D]
B: O=C1NC[C@@H](C(=O)NC(c2ccc(F)c(Cl)c2)c2ccc(F)c(OCC(F)(F)F)n2)O1 (single isomer, unassigned) [Example 1B]
C: O=C1NC[C@@H](C(=O)NC(c2ccc(OC(F)F)cc2)c2ccc(F)c(Cl)c2)O1 (single isomer, unassigned) [Example 48A]
D: O=C1NC[C@@H](C(=O)NC(c2ccc(Cl)cc2)C23CC(C(F)(F)F)(C2)C3)O1 (single isomer, unassigned) [Example 4A]
E: O=C1NC[C@@H](C(=O)NC(c2ccc(Cl)cc2)C2CCC(F)(F)C2)O1 (single isomer, unassigned) [Example 57D]
Task item: List items by IC50 in falling order. Return the labels ranked in the requested order, please.
Reply: A, E, D, B, C

The measured values listed here are drawn from patent US12516046B2.
